experiment: Protein binding in rat plasma; type: ADME, cell-free; details: read-out: PPB (converted)
measurementName: fraction unbound
Give bare numbers.

Recorded results for 2 compounds are shown here.
1. Cc1ccc(-c2cc(C(=O)N[C@@H](C)c3nnc[nH]3)cc(-c3ncccc3F)c2)nc1 ... 0.012
2. Cc1ccc(-c2cc(C(=O)N[C@H](C)c3ccc(F)cn3)cc(-n3nccn3)c2)nc1 ... 0.026

API: the following record is the query input.
Query block: What does the record list as fraction unbound for C[C@@H](NC(=O)c1cc(-c2ccc(Cl)cc2)cc(C(C)(C)O)c1)c1ccc(C(F)(F)F)[n+]([O-])c1 ?
Result block: 0.026
